- target-or-system: purified recombinant A3G-His6 (human APOBEC3G with C-terminal Myc-His6 tag, expressed in 293T cells) (human), Q9HC16
- Sequence (Q9HC16 whole entry): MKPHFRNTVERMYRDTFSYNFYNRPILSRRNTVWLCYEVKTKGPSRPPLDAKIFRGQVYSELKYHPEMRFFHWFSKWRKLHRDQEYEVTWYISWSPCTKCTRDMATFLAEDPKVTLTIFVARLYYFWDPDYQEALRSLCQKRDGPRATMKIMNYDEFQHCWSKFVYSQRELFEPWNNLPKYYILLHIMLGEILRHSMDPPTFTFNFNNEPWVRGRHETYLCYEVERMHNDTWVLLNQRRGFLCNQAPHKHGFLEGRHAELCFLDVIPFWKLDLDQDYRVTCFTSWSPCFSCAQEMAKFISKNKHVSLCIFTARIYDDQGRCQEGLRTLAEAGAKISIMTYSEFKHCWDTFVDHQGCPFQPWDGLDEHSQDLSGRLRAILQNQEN
reported-property: pKi
// field semantics: pKi = negative decimal log of concentration (mol/L)

# pKi lookup, item QLIHLYYFDCFSESA (modifications not checked) [Vif105-119 peptide] 7.17
